Where do these numbers come from? They come from ChEMBL document CHEMBL4673242.

Listing: IC50 of selected molecules
test system: MCF7; assay: Cytotoxicity against human MCF7 cells assessed as reduction in cell viability after 72 hrs by MTT assay; assay type: functional, cell-based; details: MCF7, 72 h
outcome_measure: IC50 (µM)

>>> recorded_number("COC1=C(O)C(=O)c2c(O)cccc2[C@@]1(OC)[C@@H](C)C1=CC(=O)OC1")
21
>>> recorded_number("COC1=CC(=O)c2c(O)cccc2C1=O")
11

---

system: MDA-MB-468; test: Cytotoxicity against human MDA-MB-468 cells assessed as reduction in cell viability at 50 uM after 72 hrs by MTT assay relative to control; type: functional
outcome_measure: Activity

>>> result("COC(=O)CCCCCCc1cc(=O)c2c(OC)cc(OC)cc2o1")
"<30%"
>>> result("COC(=O)CCCCCCc1cc(=O)c2c(O)cc(OC)cc2o1")
"<30%"
>>> result("COC(=O)CCCCCCc1cc(=O)c2c(O)cc(O)cc2o1")
"<30%"
>>> result("COc1cc(O)c2c(=O)cc(CCCCCCC(=O)O)oc2c1")
"<30%"
>>> result("COC1=CC(=O)c2c(O)cccc2C1=O")
">50%"
>>> result("COC1=C(O)C(=O)c2c(O)cccc2[C@@]1(OC)[C@@H](C)C1=CC(=O)OC1")
">50%"
>>> result("COC(=O)CCCCc1cc(=O)c2c(OC)cc(OC)cc2o1")
"<30%"
>>> result("COC(=O)CCCc1cc(=O)c2c(OC)cc(O)cc2o1")
"<30%"
>>> result("COC(=O)CCCCCCc1cc(=O)c2c(OC)cc(O)cc2o1")
"<30%"

---

test system: MDA-MB-468; assay: Cytotoxicity against human MDA-MB-468 cells assessed as reduction in cell viability at 50 uM after 72 hrs by MTT assay relative to control; assay type: functional
outcome_measure: Activity

>>> result("COc1cc(OC)c2c(=O)cc(CCCCC(=O)O)oc2c1")
"<30%"
>>> result("COc1cc(OC)c2c(=O)cc(CCCC/C=C/C(=O)O)oc2c1")
"<30%"
>>> result("COC(=O)CCc1cc(=O)c2c(OC)cc(OC)cc2o1")
"<30%"
>>> result("COc1cc(OC)c2c(=O)cc(CCCCCCC(=O)O)oc2c1")
"<30%"
>>> result("COC1=C(O)C(=O)c2c(O)cccc2C1=O")
">50%"
>>> result("O=C(O)CCCCCCc1cc(=O)c2c(O)cc(O)cc2o1")
"<30%"
